experimental_target: SIK1 kinase (aa1-303, Thermo Fisher) (Homo sapiens)
Construct: SIK1 kinase (aa1-303, Thermo Fisher); purchased Thermo Fisher
Sequence (P57059 1-303): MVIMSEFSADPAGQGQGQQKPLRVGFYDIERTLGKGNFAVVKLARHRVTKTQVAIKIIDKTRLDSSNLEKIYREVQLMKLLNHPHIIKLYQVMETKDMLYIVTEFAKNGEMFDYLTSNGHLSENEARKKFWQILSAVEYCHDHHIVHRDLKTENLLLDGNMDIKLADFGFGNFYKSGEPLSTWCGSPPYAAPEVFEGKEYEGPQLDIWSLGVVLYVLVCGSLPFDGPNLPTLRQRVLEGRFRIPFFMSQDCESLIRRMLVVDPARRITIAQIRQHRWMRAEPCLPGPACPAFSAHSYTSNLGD
procedure_details: Biochemical activities determination for SIK1 protein (TR-FRET)
measurement_setup: 110 uM ATP, 0.5 μM STK1 substrate
measurement_name: IC50 (nM)

Example entries begin here.
O=C1c2c(cc(-c3coc4cc(-c5cnn(C6CNC6)c5)ccc34)cc2OC(F)F)CCN1CC(F)(F)F [Compound 42] ... 1590
COc1cc(-c2coc3cc(-c4cnn(C5CN(C)C5)c4)ccc23)cc(OC(F)F)c1C(=O)N[C@@H]1C[C@@H]1F [Compound 37] ... 25
COc1cc(-c2coc3cc(-c4cnn(C)c4)ccc23)cc(OC(F)F)c1C(=O)NC1CC1 [Compound 132] ... 124
COc1cc(-c2coc3cc(OCCN4CC[C@H](OC)C4)ccc23)cc(OC(F)F)c1C(=O)N[C@@H]1C[C@@H]1F [Compound 82] ... 1470
COc1cc(-c2coc3cc(-c4cnn(C)c4)ccc23)cc2c1C(=O)N(CC(F)(F)F)[C@H](C)C2 [Compound 29B] ... 5980

(I) COc1cc(-c2coc3cc(OCCN(C)C)ccc23)cc(OC(F)F)c1C(=O)N[C@@H]1C[C@@H]1F [Compound 73]
(II) COc1cc(-c2coc3cc(-c4cnn(C5CCN(C)C5)c4)ccc23)cc2c1C(=O)N(CC(F)(F)F)CC2 (stereo not drawn) [Compound 51]
Task: // returns I or II , whichever has the lower IC50 In your reply, give the label of the chosen option.
Output: II
(II: 317 nM, I: 3260 nM)

(P) COc1cc(-c2coc3cc(OCCN4CCCCC4)ccc23)cc(OC(F)F)c1C(=O)N[C@@H]1C[C@@H]1F [Compound 70]
(Q) COc1cc(-c2coc3cc(-c4cnn(C5CCN(C)CC5)c4)ccc23)cc2c1C(=O)N(CC(F)(F)F)CC2 [Compound 52]
(R) O=C(NC1CC1)c1c(NCCO)cc(-c2coc3cc(OCCN4CCCC4)ccc23)cc1OC(F)F [Compound 104]
Task: hey, can you rank those compounds up there by IC50? biggest number first please List the labels in the requested order.
Output: R, P, Q

(I) COc1cc(-c2coc3cc(OCCN4CCC[C@@H](C)C4)ccc23)cc(OC(F)F)c1C(=O)N[C@@H]1C[C@@H]1F [Compound 89]
(II) COc1cc(-c2coc3cc(OCCN4CCC(C)CC4)ccc23)cc(OC(F)F)c1C(=O)N[C@@H]1C[C@@H]1F [Compound 94]
Task: Given the two records I and II , choose the one whose IC50 value is lower. When you have decided, please share the label of that item.
Output: II

The origin of these recorded values is patent US20260085053A1.
